Molecular target: T1, human DLL4 extracellular domain (human, UniProt Q9NR61 27-529)
T1 construct: purified recombinant ECD; biotin-labelled or 6xHis-tagged depending on the assay; also called huDLL4 ECD; hu DLL4 ECD
T1 sequence (Q9NR61 27-529 limits assumed): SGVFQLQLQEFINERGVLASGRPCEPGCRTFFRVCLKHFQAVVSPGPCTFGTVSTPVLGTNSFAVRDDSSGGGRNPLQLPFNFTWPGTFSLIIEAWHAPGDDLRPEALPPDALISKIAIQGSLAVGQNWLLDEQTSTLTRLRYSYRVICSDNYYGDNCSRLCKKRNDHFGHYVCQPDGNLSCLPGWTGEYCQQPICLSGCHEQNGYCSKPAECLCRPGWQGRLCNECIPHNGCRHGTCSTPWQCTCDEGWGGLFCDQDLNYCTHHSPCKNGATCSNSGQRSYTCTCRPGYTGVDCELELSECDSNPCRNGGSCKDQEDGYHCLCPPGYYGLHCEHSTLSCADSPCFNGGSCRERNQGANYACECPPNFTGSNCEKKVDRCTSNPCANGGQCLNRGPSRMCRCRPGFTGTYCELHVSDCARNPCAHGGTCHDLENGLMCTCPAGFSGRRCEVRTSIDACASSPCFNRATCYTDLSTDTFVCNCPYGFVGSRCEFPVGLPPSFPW
Experiment: competition ELISA vs Notch-1 Fc
pEC50: −log10 of the molar value.
reported endpoint: pEC50

{"columns": ["binder", "recorded number"],
 "data": [
  ["h38H12.10 (antibody, V domains shown, humanized IgG; also called VH.1b/VL.1a 38H12) VH: EVQLVESGGGVVQPGRSLRLSCAASGFTFSNYGMYWVRQAPGKGLEWVAFISHGGGITYYRDSVKGRFTISRDNSKNTLYLQMNSLRAEDTAVYYCAALNWELGIDYWGQGTMVTVSS VL: DIQMTQSPSSLSASVGDRVTITCRASEDIYSNLAWYQKKPGKSPKLLIYAANRLQDGVPSRFSGSGSGTDYTLTISSLQPEDFATYFCLQGSKFPLTFGQGTKLEIKR", 8.41],
  ["h38H12.6 (antibody, V domains shown, humanized IgG; also called VH.1a/VL.1a 38H12) VH: EVQLVESGGGVVQPGRSLRLSCAASGFTFSNYGMYWIRQAPGKGLEWVAFISHGGGITYYRDSVKGRFTISRDNSKSTLYLQMNSLRAEDTAVYHCAALNWELGIDYWGQGTMVTVSS VL: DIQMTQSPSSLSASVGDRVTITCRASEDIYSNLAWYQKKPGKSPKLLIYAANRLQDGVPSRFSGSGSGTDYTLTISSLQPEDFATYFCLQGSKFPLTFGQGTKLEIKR", 7.57],
  ["h38H12.5 (antibody, V domains shown, humanized IgG; also called VH.1a/VL.1 38H12) VH: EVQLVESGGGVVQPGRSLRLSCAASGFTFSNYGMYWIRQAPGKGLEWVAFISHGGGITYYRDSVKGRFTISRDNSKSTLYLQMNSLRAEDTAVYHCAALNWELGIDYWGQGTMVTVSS VL: DIQMTQSPSSLSASVGDRVTITCRASEDIYSNLAWYQQKPGKAPKLLIYAANRLQDGVPSRFSGSGSGTDFTLTISSLQPEDFATYYCLQGSKFPLTFGQGTKLEIKR", 7.83],
  ["h38H12.13 (antibody, V domains shown, humanized IgG; also called VH.2a/VL.1 38H12) VH: EVQLVESGGGLVQPGGSLRLSCAASGFTFSNYGMYWIRQAPGKGLEWVAFISHGGGITYYRDSVKGRFTISRDNSKSTLYLQMNSLRAEDTAVYHCAALNWELGIDYWGQGTMVTVSS VL: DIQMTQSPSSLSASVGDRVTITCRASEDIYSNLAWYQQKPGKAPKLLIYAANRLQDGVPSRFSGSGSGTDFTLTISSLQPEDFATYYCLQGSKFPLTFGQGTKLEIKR", 8.28],
  ["h38H12.7 (antibody, V domains shown, humanized IgG; also called VH.1a/VL.1b 38H12) VH: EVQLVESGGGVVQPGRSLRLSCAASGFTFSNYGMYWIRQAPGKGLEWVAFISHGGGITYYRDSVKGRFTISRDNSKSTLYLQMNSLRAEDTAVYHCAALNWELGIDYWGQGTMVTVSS VL: DIQMTQSPSSLSASVGDRVTITCRASEDIYSNLAWYQQKPGKAPKLLIYAANRLQDGVPSRFSGSGSGTDYTLTISSLQPEDFATYYCLQGSKFPLTFGQGTKLEIKR", 7.90],
  ["h38H12.16 (antibody, V domains shown, humanized IgG; also called VH.2a/VL.2a 38H12) VH: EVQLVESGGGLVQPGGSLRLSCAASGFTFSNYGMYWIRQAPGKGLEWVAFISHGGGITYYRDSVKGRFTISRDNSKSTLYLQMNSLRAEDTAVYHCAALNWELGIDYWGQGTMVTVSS VL: EIVMTQSPATLSVSPGERATLSCRASEDIYSNLAWYQKKPGQSPRLLIYAANRLQDGVPARFSGSGSGTEYTLTISSLQSEDFAVYFCLQGSKFPLTFGQGTKLEIKR", 8.42],
  ["h38H12.11 (antibody, V domains shown, humanized IgG; also called VH.1b/VL.1b 38H12) VH: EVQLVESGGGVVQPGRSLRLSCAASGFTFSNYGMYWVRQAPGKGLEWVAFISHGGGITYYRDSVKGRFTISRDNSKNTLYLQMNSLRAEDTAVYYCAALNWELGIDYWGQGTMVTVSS VL: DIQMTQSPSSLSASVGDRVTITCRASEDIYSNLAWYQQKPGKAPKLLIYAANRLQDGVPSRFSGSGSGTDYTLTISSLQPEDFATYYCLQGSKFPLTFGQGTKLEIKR", 8.42]
]}
